- Assayed system: Coagulation factor X (Homo sapiens)
- Method description: Binding affinity for human Coagulation factor X
Overview of recorded K ass for various molecules

Answered examples (3):
[[record]]
entry_smiles = "CC(C)(C)c1ccc(C(=O)Nc2cc(C(=O)O)ccc2NC(=O)c2cccc(C(=N)N)c2)cc1"
assayed_system = "Coagulation factor X (Homo sapiens)"
observed_measurement = "4.7e+08 l M-1"

[[record]]
entry_smiles = "O=C(NCC1CCN(c2ccncc2)CC1)Nc1ccccc1NC(=O)c1ccccc1"
assayed_system = "Coagulation factor X (Homo sapiens)"
observed_measurement = "5.9e+06 l M-1"

[[record]]
entry_smiles = "COc1ccc(C(=O)Nc2ccccc2NC(=O)C2CCN(c3ccncc3)CC2)cc1"
assayed_system = "Coagulation factor X (Homo sapiens)"
observed_measurement = "2.3e+06 l M-1"


// returns reported K ass for input `COc1ccc(C(=O)Nc2ccccc2NC(=O)c2ccc(-c3ccncc3)cc2)cc1` 9.2e+06 l M-1

// returns reported K ass for input `COc1ccc(C(=O)Nc2ccccc2NC(=O)OC2CCN(c3ccncc3)CC2)cc1` 1.7e+07 l M-1

* * *

- Species on record: Homo sapiens
- Method description: Prothrombin time activity, concentration required to double the time of clot formation in the prothrombin time assay
- Assay type: functional
Param label: returns yes (1) when PT < 3 µM, returns no (0) otherwise, including exact equality.

[[record]]
entry_smiles = "COc1ccc(C(=O)Nc2ccccc2NC(=O)OCCC2CCN(c3ccncc3)CC2)cc1"
class_assignment = "no (0)"


Strictly below 3 µM: is that where PT of `COc1ccc(C(=O)Nc2ccc(O)cc2NC(=O)c2ccc(C(C)(C)C)cc2)cc1` sits? no (0)

Strictly below 3 µM: is that where PT of `COc1ccc(C(=O)Nc2ccccc2NC(=O)C2CCN(c3ccncc3)CC2)cc1` sits? no (0)

Strictly below 3 µM: is that where PT of `COc1ccc(C(=O)Nc2ccccc2NC(=O)OCC2CCN(c3ccncc3)CC2)cc1` sits? yes (1)

* * *

- Assayed system: UniProt P00742
- Method description: Binding affinity for human Coagulation factor X
Overview of recorded K ass for various compounds

Answered examples (2):
[[record]]
entry_smiles = "COc1ccc(C(=O)Nc2ccccc2NC(=O)OCC2CCN(c3ccncc3)CC2)cc1"
assayed_system = "UniProt P00742"
observed_measurement = "2e+07 l M-1"

[[record]]
entry_smiles = "CC(C)(C)c1ccc(C(=O)Nc2ccccc2NC(=O)NCC2CCN(c3ccncc3)CC2)cc1"
assayed_system = "UniProt P00742"
observed_measurement = "40000 l M-1"


Next compound, please.
// returns reported K ass for input `COc1ccc(C(=O)Nc2ccccc2NC(=O)OCCC2CCN(c3ccncc3)CC2)cc1` 2.5e+06 l M-1

* * *

- Assayed system: Coagulation factor X (Homo sapiens) (UniProt P00742)
- Sequence (P00742 41-179 limits assumed): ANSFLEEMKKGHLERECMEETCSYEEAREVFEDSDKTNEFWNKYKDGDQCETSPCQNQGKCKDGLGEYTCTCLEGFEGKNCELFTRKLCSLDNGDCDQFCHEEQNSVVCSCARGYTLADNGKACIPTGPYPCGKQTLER
- Sequence (P00742 235-488 limits assumed): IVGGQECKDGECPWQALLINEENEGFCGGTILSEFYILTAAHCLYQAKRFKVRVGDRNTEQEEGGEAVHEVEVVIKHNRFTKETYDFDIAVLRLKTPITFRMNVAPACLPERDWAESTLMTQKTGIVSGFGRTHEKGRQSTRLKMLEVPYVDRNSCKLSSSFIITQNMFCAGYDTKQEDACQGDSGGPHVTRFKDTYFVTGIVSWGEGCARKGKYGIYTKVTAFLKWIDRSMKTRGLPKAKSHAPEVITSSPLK
- Method description: Binding affinity for human Coagulation factor X
Observation type: K ass

Answered examples (2):
[[record]]
entry_smiles = "COc1ccc(C(=O)Nc2ccc(O)cc2NC(=O)c2ccc(C(C)(C)C)cc2)cc1"
observation_type = "K ass"
observed_measurement = "6.6e+06 l M-1"

[[record]]
entry_smiles = "O=C(NCC1CCN(c2ccncc2)CC1)Nc1ccccc1NC(=O)c1ccc(Cl)cc1"
observation_type = "K ass"
observed_measurement = "1e+08 l M-1"


// returns reported K ass for input `COc1ccc(C(=O)Nc2ccccc2NC(=O)NC2CCN(c3ccncc3)CC2)cc1` 1.2e+07 l M-1

// returns reported K ass for input `CCOc1ccc(C(=O)Nc2ccccc2NC(=O)NCC2CCN(c3ccncc3)CC2)cc1` 1.5e+07 l M-1

// returns reported K ass for input `COc1ccc(C(=O)Nc2ccccc2NC(=O)NCC2CCN(c3ccncc3)CC2)cc1` 6.2e+07 l M-1

* * *

Overview of recorded PT for various compounds
- Organism: Homo sapiens
- Method description: Prothrombin time activity, concentration required to double the time of clot formation in the prothrombin time assay
- Format: functional
Quick note: give the figure in µM, leave out the unit.

[[record]]
entry_smiles = "COc1ccc(C(=O)Nc2ccccc2NC(=O)OC2CCN(c3ccncc3)CC2)cc1"
observation_type = "PT"
observed_measurement = 2.6

[[record]]
entry_smiles = "COc1ccc(C(=O)Nc2ccccc2NC(=O)c2ccc(-c3ccncc3)cc2)cc1"
observation_type = "PT"
observed_measurement = 9.5


Next compound, please.
// returns reported PT for input `O=C(NCC1CCN(c2ccncc2)CC1)Nc1ccccc1NC(=O)c1ccc(Cl)cc1` 0.58
